Cited source for all entries: paper PMC7949108

- System Name: Ded1-G488A (Saccharomyces cerevisiae, UniProt P06634 1-604, G488A)
- Sequence (P06634 whole entry G488A): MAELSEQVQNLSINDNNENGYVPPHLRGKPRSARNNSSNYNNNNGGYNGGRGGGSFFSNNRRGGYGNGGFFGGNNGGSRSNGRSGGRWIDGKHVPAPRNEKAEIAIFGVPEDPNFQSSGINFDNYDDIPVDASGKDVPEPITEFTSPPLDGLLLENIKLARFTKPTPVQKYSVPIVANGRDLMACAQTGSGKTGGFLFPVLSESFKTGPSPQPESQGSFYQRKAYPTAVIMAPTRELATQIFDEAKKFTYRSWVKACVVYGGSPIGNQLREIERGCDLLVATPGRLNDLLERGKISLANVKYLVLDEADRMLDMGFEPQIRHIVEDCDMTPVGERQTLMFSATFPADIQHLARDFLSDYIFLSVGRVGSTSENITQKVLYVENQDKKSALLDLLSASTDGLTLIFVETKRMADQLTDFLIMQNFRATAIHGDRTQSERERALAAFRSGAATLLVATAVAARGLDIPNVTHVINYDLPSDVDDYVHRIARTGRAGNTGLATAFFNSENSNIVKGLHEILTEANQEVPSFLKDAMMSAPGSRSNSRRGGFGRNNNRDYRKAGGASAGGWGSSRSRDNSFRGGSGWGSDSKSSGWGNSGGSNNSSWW
- Assay Details: fluorescence anisotropy; 2 mM ADP-BeFx; 20 mM HEPES pH 7.5, 40 mM NaCl, 20% glycerol, 2 mM ADP-BeFx; 2 nM RNA, 0-400 nM protein, 30 min; temperature not stated
- Assay Conditions: protein: recombinant; tags: His (pET28a); label: 5' 6-carboxyfluorescein; single strand
Reported Property: pKd
# pKd = -log10(concentration in molar units)

Need pKd, item AGCACCGUAAAGACGC (ssRNA) [16-mer RNA oligomer]
7.11
